All values here come from patent EP0290169A2.

System: L1210 leukemia
Experiment: L1210 screening (L1210 leukemia tumor model), increase in life span
Assay type: in vivo, Female CDF1 mice
Details: dose 320.00 mg/kg on day 1, vehicle water; survivors
Experimental: Female CDF1 mice (16-22 g) are injected with a suspension of 1 x 10^6 tumor cells in 0.5 mL of 0.15 M saline on day zero. On day one, the mice receive the test compound in 0.5 mL of the chosen medium (usually water). […] The percent increase in lifespan (ILS) is calculated as follows: %ILS = [(mean life span (test)/mean life span(control)-I]x100 A 25% ILS or greater indicates activity. The maximum possible ILS is 200%. The positive control must have an ILS of S 25% for the test to be considered valid. […]
ATTRIBUTE_MEASURED: Surv.

1. CCC(C)(C(=O)[O-])P(=O)([O-])[O-].N[C@@H]1CCCC[C@H]1N.[Na+].[Pt+2] (relative stereo); 0/ 6
2. CC(N)CN.CCC1C(=O)[O][Pt][O]P1(=O)[O-].[Na+] (mixture of isomers) [Ex 8, Na[Pt(pn)(2-phosphonobutyrate)]]; 0/ 6

// moving on: another record for Surv.
Task: Query (molecule): N.N.O=C1CP(=O)([O-])[O][Pt][O]1.[Na+] [Ex 21, Na(cis-Pt(NH3)2(phosphonoacetate)]] ; field requested: Surv.
Result: 0/ 6

====

%ILS values, listed per item
Test system: Sarcoma 180 ascites
Experiment: S180a screening (Sarcoma 180 ascites tumor model), increase in life span
Type: in vivo, CFW mice
Conditions: dose 40.00 mg/kg on day 1, vehicle water
A complete answer gives the number followed by the unit.

1. CC1C(=O)[O][Pt][O]P1(=O)[O-].N.N.[Na+] (racemic) [Ex 15, Na[cis-Pt(NH3)2(2-phosphonopropionate)]]; -7%
2. CCCC1C(=O)[O][Pt][O]P1(=O)[O-].N.N.[Na+] (racemic) [Ex 19, Na[cis-Pt(NH3)2(2-phosphonovalerate)]]; -85%
3. CC(N)CN.CCC1C(=O)[O][Pt][O]P1(=O)[O-].[Na+] (mixture of isomers) [Ex 8, Na[Pt(pn)(2-phosphonobutyrate)]]; 46%
4. NCCN.O=C1CP(=O)(O)[O][Pt][O]1 [Ex 16, H[Pt(en)(phosphonoacetate)]]; 64%
5. N[C@@H]1CCCC[C@H]1N.O=C1[O][Pt][O]P1(=O)[O-].[Na+] [Ex 20, Na[Pt(trans-R,R-dach)(phosphonoformate)]]; 7%
6. CCCC1C(=O)[O][Pt][O]P1(=O)[O-].NC1CCCCC1N.[Na+] (mixture of isomers) [Ex 18]; 77%
7. N.N.O=C1[O][Pt][O]P(=O)([O-])C1c1ccccc1.[Na+] (racemic) [Ex 7]; 26%
8. NC1CCCCC1N.O=C1[O][Pt][O]P(=O)([O-])C1c1ccccc1.[Na+] (mixture of isomers) [Ex 6]; 24%

Task: Which %ILS value is on record for CCC(C)(C(=O)[O-])P(=O)([O-])[O-].N[C@@H]1CCCC[C@H]1N.[Na+].[Pt+2] (relative stereo) [Ex 22] ?
Result: 82%

Task: Name the reported %ILS value associated with the compound CC(C)N.CC(C)N.O=C1CP(=O)([O-])[O][Pt][O]1.[Na+] [Ex 9, Na[cis-Pt(i-PrNH2)2(phosphonoacetate)]]
Result: -2%

Task: What value of %ILS has been reported for the following compound? CC(N)CN.O=C1CP(=O)(O)[O][Pt][O]1 (racemic) [Ex 10, H[Pt(pn)(phasphonoacetate)]]
Result: 9%

Task: Name the recorded %ILS for CC(N)CN.CC1C(=O)[O][Pt][O]P1(=O)[O-].[Na+] (mixture of isomers) [Ex 12, Na[Pt(pn)(2-phosphonopropionate)]] .
Result: 24%
